- Tested on: A549/ATCC NSCLC
- Experiment Notes: NCI-60 one-dose screen, 48 h (100 = growth as untreated, 0 = no growth, -100 = all killed)
- Test Parameters: 10 µM unless noted
The panel holds about 83,000 compounds, 20% with a hit somewhere; the sample as a whole holds those more often.
Readout Type: growth (%)

# Compound Structure, System Under Test, Readout Type, Unit Label, Measured Value
measured = [
    ("COc1ccc(-n2nnc(C(=O)NCCc3c[nH]c4ccc(F)cc34)c2C)cc1", "A549/ATCC NSCLC", "growth", "%", 82),
    ("C/C(=N\\NC(=O)Cn1c(-c2ccc(S(C)(=O)=O)cc2)nc2cc(Cl)ccc21)c1ccc(Cl)cc1", "A549/ATCC NSCLC", "growth", "%", 66.7),
    ("COc1ccc(Oc2nc(Nc3ccc(N4CCOCC4)nc3)ncc2NC(=O)c2cc(OC)cc(OC)c2)cc1", "A549/ATCC NSCLC", "growth", "%", 84.6),
    ("CC(C)(C)CC(C)(C)Nc1c(-c2ccc(-c3ccccc3)cc2)nc2cnccn12", "A549/ATCC NSCLC", "growth", "%", 56.4),
    ("NC(=O)c1c(NC(=O)c2ccccn2)sc2c1CCC(=O)C2", "A549/ATCC NSCLC", "growth", "%", 60.6),
    ("COc1ccc(/C(C)=C(\\c2ccc(Cl)cc2)c2ccc(OCCN3CCCC3)cc2)cc1F", "A549/ATCC NSCLC", "growth", "%", 42.2),
    ("NC(=O)CC1(O)C=C(Br)C(=O)C(Br)=C1", "A549/ATCC NSCLC", "growth", "%", 112),
    ("CN(C)c1ccc2cc(-c3ccccc3F)c(N)nc2c1", "A549/ATCC NSCLC", "growth", "%", 22.1),
    ("COc1ccc(OC)c(/C=C2\\COc3ccc(O)cc3C2=O)c1", "A549/ATCC NSCLC", "growth", "%", 101),
    ("C[C@@H]1C(=O)N(C[C@@H](Cc2ccccc2)NC(=O)OCc2ccccc2)[C@]1(Cc1ccccc1)C(=O)OCc1ccccc1", "A549/ATCC NSCLC", "growth", "%", 22.8),
]

----------
- Test system: RXF 393 renal
- Experiment Notes: NCI-60 one-dose screen, 48 h (100 = growth as untreated, 0 = no growth, -100 = all killed)
- Test Parameters: 10 µM unless noted
About 83,000 compounds went through this panel and 20% of them were active in at least one assay; those are over-represented in the sample as a whole.
Listed next: entries and their corresponding growth.
Readout Type: growth (%)

# Compound, Measured Value
records = [
    ("COC(=O)CCCNC(=O)C(=O)c1c(O)c(O)c(C(C)C)c2cc(C)c(-c3c(C)cc4c(C(C)C)c(O)c(O)c(C(=O)C(=O)NCCCC(=O)OC)c4c3O)c(O)c12", -6.97),
    ("Cc1ccc(Nc2ccc(Nc3ccc(C)cc3S(=O)(=O)O)c3c2C(=O)c2ccccc2C3=O)c(S(=O)(=O)O)c1", 107),
    ("Cc1csc(NC(=O)c2sc3nc(-c4cccs4)ccc3c2N)n1", 107),
    ("NC(=O)c1c(NC(=O)c2ccc(C(F)(F)F)cc2Cl)sc2c1CCC(=O)C2", -39),
    ("O=[N+]([O-])c1ccc(-c2cc3c(Nc4ccc(Cl)c(C(F)(F)F)c4)ncnc3s2)cc1", 5.99),
    ("CCCCNCC(=O)Nc1ccc(C(=O)OCC)cc1", 110),
    ("CN(C)CN1CCN(c2ccc3nc(-c4ccc5nc(-c6ccc(C(F)(F)F)cc6)[nH]c5c4)[nH]c3c2)CC1", 50.3),
    ("COc1cc(NC(=O)c2cccc(-c3cc(=O)c4c(O)c(OC)c(OC)cc4o3)c2)cc(OC)c1OC", 75),
    ("COc1ccc(C2CC(c3ccc4ccccc4c3)=NN2c2nc(O)c(C3=c4cc(Cl)ccc4=NC3=O)s2)cc1 (stereo not drawn)", -67.3),
    ("CCOC(=O)C1C(=O)C=C(c2cnccn2)CC1c1ccc(OC)c(OC)c1 (stereo not drawn)", 114),
    ("Cc1nn(Cc2ccccc2)cc1C(=O)Nc1sc2c(c1C(N)=O)CCC(=O)C2", 31.4),
    ("O=C(/C=C/C12c3ccccc3C(c3ccccc31)C1C(=O)NC(=O)C12)c1ccccc1 (stereo not drawn)", -13.1),
    ("COc1cc2c(O)n(CCCn3ccnc3)c3c4cnc5cccc(c(=O)c3c2cc1OC)c54", 39.5),
    ("CN1CCN(C(=O)[C@]23CCC(C)(C)C[C@@H]2C2=CC[C@@H]4[C@@]5(C)Cc6c([nH]c7ccccc67)C(C)(C)[C@@H]5CC[C@@]4(C)[C@]2(C)CC3)CC1", 80.1),
    ("CCOC(=O)C(O)C(O)(c1ccccc1)c1ccccc1 (stereo not drawn)", 113),
    ("C=CCN1C(=O)[C@]2(SC1=S)[C@H](c1cccc(Cl)c1)CN(C)[C@]21C(=O)NC2C=CC(Cl)=C[C@H]21 (stereo partly drawn)", 35.4),
    ("COc1ccc(-c2cncnc2N)cc1OC", 112),
    ("Cc1ccc(C)c2c1C(=O)OC2=O", 127),
]
